# Assay: growth suppression of yeast trafficking mutant, preliminary HTS, modulators of trafficking downstream of Golgi apparatus project, 1536-format plate, OD 615 nm (AID 637)
# Setup Conditions: yeast transport mutant growth, absorbance 615 nm, 18 h; hits give high values
Listing of recorded inhibition by entry.
Reply numerically in %, unit not repeated.

Examples with answers:
[[record]]
molecule = "CCC1(C)Cc2c(C#N)c(N)n(N)c(=S)c2CO1 (stereo not drawn)"
result_units = "%"
assay_value = -2.13

[[record]]
molecule = "COc1ccc(OC)c(C(=O)CSc2nnc(-c3ccc(OC)c(OC)c3)o2)c1"
result_units = "%"
assay_value = -8.85


Just so you know, measured inhibition for COc1ccccc1NC(=O)C1=C(C)Nc2nc(CCCO)nn2C1c1cccnc1 (stereo not drawn) came out at -3.81

For this molecule ( `Cc1cc(C)n2cc(CSCc3ccco3)nc2n1` ), measured inhibition is 0.83

Lab note: measured inhibition of `O=C(c1ccccc1-c1ccccc1)N1CCN(c2ccccn2)CC1` was -4.75

Entry Cc1ccc(-c2[nH]nc3c2C(c2ccc(OC(=O)N4CCOCC4)cc2)C(C#N)=C(N)O3)cc1 (stereo not drawn) — recorded inhibition = -11.4

The molecule listed as `CCCCOc1ccc(-c2nnc(N)s2)cc1` has a reported inhibition of 1.15

// inhibition value for CCOC(=O)c1c(C)c(C(=O)NCC2CCCO2)c(C)n1C (stereo not drawn) : 1.59

###

# Assay: viability gain of MRP-1-high H69AR cells under doxorubicin, pilot screen, MRP-1 activator project, CellTiter-Glo, duplicate (AID 807);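 further: compound pretreatment 18-22 h then 72 h combined with doxorubicin; 0% = doxorubicin alone and 100% = vehicle without doxorubicin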
# Setup Conditions: H69AR viability with doxorubicin, CellTiter-Glo luminescence; at 10 µM; hits give high values
Readout Type: viability increase (%)
Express it in %; write the number only.

Some solved entries appear below for comparison.
[[record]]
compound = "Cc1csc2nc(CNS(=O)(=O)c3ccc4c(c3)OCCO4)cn12"
assay_value = -1.85

[[record]]
compound = "CCOCCCNC(=O)c1cccs1"
assay_value = -1.31


Quick note, viability increase for `COc1ccc(S(=O)(=O)N2CCN(c3ccc4nnc(-c5ccc(F)cc5)n4n3)CC2)cc1` landed at -6.07

get_value(item= `CN(C)/C=N/c1c(C#N)cnn1-c1nc2ccccc2s1` , readout=viability increase) returns -3.38

Measured viability increase of `Cc1ccc(S(=O)(=O)/N=C(\CN2CCCCC2)N2CCOCC2)cc1` : -1.32

Reported viability increase ( COc1ccc(NC(=O)C(c2ccccc2)N(C)C(=O)c2cnccn2)cc1 (stereo unspecified) ) = -1.52

The value of viability increase measured for the compound `CCOC(=O)C1CCN(c2c(N3CCN(Cc4ccccc4)CC3)c(=O)c2=O)CC1` turned out to be -0.78

Lookup result for `O=C(CSCc1ccco1)Nc1cc(C(F)(F)F)ccc1N1CCOCC1` ; measured viability increase: -5.7

In plain terms, `CC(=O)Nc1ccc(S(=O)(=O)c2ccc(N)cc2)cc1N` has a documented viability increase of -1.15

viability increase measured on CCC(C)C1C(C#N)=C(N)Oc2n[nH]c(C)c21 (stereo unspecified) = -7.71

Measured viability increase, `CCCC(=O)Nc1cc(=O)n(C)c(=O)n1C` : -1.04

###

# Assay: growth inhibitors of H69AR lung tumor, primary screen, human, duplicate replicates (AID 580);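 further: 100% = mean luminescence of untreated wells and 0% = no signal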
# Setup Conditions: H69AR lung tumor cells viability, ATP luminescence, 72 h; at 10 µM; hits give low values
Readout Type: viability (%)
Please respond with the number in % and leave the unit unwritten.

Examples with their reported viability follow.
[[record]]
compound = "CCCOc1ccc(N2C(=O)C3ON(c4ccccc4)C(c4ccc(O)c(OC)c4)C3C2=O)cc1 (stereo not given)"
assay_value = 93.8

[[record]]
compound = "N#Cc1c(NC(=O)CSc2nnnn2C2CCCC2)sc2c1CCCC2"
assay_value = 69.9

[[record]]
compound = "O=C1c2ccccc2C(O)(Cc2ccccc2)N1Cc1ccco1 (stereo not given)"
assay_value = 95.7

[[record]]
compound = "COc1ccc(-n2c(=O)[nH]cc(C(=O)Nc3ccc(NC(C)=O)cc3)c2=O)cc1"
assay_value = 96.1


Okay, now this compound:
What the record says about `CCOC(=O)c1sc(=NC(=O)c2ccc(OC)c(OC)c2)n(C)c1C` : viability is 65
